Molecular target: T1, TNF-α (UniProt P01375 77-233, limits assumed)
T1 construct: also called tumor necrosis factor; ligand
T1 sequence (P01375 77-233 limits assumed): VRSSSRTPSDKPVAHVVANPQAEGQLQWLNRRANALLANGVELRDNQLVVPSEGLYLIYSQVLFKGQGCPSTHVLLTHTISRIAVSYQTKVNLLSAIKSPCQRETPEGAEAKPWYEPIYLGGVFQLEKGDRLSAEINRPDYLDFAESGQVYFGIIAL
Assay: competition ELISA: sample vs plate-bound TNFRI190 for TNF-α, from IC50, relative to wild-type TNFRI126
outcome.measure: Affinity (%)
Please respond with the number in % and leave the unit unwritten.

Some entries whose results are on file:
>  <binder>
TNFRI126-A26 (receptor, Met-TNFRI126 mutant made in E. coli) MDSVCPQGKYIHPQNNSICCTKCHKGTYLYNDCPGPGQDTDCRECESGSFTAIPNFLPGCLSCSKCRKEMGQVEISSCTVDRDTVCGCRKNQYRHYWSENLFQCFNCSLCLNGTVHLSCQEKQNTVC

>  <Affinity (%)>
1140

$$$$
>  <binder>
TNFRI126-A23 (receptor, Met-TNFRI126 mutant made in E. coli) MDSVCPQGKYIHPQNNSICCTKCHKGTYLYNDCPGPGQDTDCRECESGSFTAIPNFLLACLSCSKCRKEMGQVEISSCTVDRDTVCGCRKNQYRHYWSENLFQCFNCSLCLNGTVHLSCQEKQNTVC

>  <Affinity (%)>
1100

$$$$
>  <binder>
TNFRI126-A22 (receptor, Met-TNFRI126 mutant made in E. coli) MDSVCPQGKYIHPQNNSICCTKCHKGTYLYNDCPGPGQDTDCRECESGSFTAMENFLPGCLSCSKCRKEMGQVEISSCTVDRDTVCGCRKNQYRHYWSENLFQCFNCSLCLNGTVHLSCQEKQNTVC

>  <Affinity (%)>
1430

$$$$

Okay, next one:
Challenge: Suppose we examine the binder TNFRI126-A8 (receptor, Met-TNFRI126 mutant made in E. coli) MDSVCPQGKYIHPQNNSICCTKCHKGTYLYNDCPGPGQDTDCRECESGSFTAFENFLPACLSCSKCRKEMGQVEISSCTVDRDTVCGCRKNQYRHYWSENLFQCFNCSLCLNGTVHLSCQEKQNTVC ; what Affinity (%) value has been reported?
Response given: 865

This collection of values is drawn from patent US20120277142A1.
